assayed.system: unphosphorylated-BTK kinase domain (UP-BTK), GST-tagged human BTK (389-659aa) (Homo sapiens (Human), UniProt Q06187)
Sequence (Q06187 389-659): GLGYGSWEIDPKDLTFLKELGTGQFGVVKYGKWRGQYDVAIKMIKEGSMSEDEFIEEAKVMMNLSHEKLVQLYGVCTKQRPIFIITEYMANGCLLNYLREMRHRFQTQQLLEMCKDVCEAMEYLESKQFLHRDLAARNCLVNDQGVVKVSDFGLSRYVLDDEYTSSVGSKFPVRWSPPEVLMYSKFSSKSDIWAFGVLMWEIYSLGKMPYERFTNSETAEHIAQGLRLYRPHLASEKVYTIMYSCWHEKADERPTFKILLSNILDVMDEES
experiment.summary: BTK Kinase Lanthascreen Binding Assay
particulars: compound, 50 nM Tracer 236, 2 nM anti-GST antibody, 60 minutes; pIC50 = negative log of the IC50 in molar
recorded.endpoint: BTK_I_binding pIC50

In [3]: df
Out[3]:
                                   compound  value_observed
0  C=CC(=O)N[C@@H]1CC[C@H](NC(=O)c2sc3nccc4c3c2NC(=O)N4c2ccc(Oc3ccccc3)cc2C)C1 (single isomer, unassigned) [Example 101]            7.95
1  CC(=O)N[C@@H]1CCC[C@H]1NC(=O)c1sc2nccc3c2c1NC(=O)N3c1ccc(Oc2ccccc2)cc1C (single isomer, unassigned) [Example 67]            7.41
2  Cc1cc(Oc2ccccc2)ccc1N1C(=O)Nc2c(C(=O)N[C@@H]3CC[C@@H](NC(=O)CN(C)C)C3)sc3nccc1c23            7.44
